protocol-summary: Plasma pharmacokinetics of momelotinib and M-21
Type: in vivo, human
condition-context: human, plasma, oral, Tmax, median (Q1, Q3), momelotinib in plasma, day 15 of cycle 1; M3: momelotinib 150 mg b.i.d. with trametinib 1.0 mg q.d.
readout-label: Tmax (h)
Provide the reading as a plain figure in h.

What Tmax value was documented for this compound, `N#CCNC(=O)c1ccc(-c2ccnc(Nc3ccc(N4CCOCC4)cc3)n2)cc1` ?
1.1
